System: Wild type
Assay: S. aureus survival, RN4220 and DeltatarO strains – OD600, teichoic acid synthesis inhibitors, primary screen (AID 463173)
Settings: S. aureus RN4220 wild type/DeltatarO growth, OD600, 18 h, screened at 18.75 µg/mL (by protocol)
The campaign covered roughly 52,000 compounds. About 1,700 (3.3%) were called active. Cut-off read from the data, not from the text of the source: active = survival mostly below about 52% (no sharp cut-off); inactive = mostly above about 56%. The sample as a whole holds a higher share of actives than the screen did.
Hi! Could you answer with just one of these? active, inactive

Illustrative cases are given below, each with its answer.
So what was the verdict on CC(=O)Nc1ccc(C(=O)N2CC(C)OC(C)C2)cc1 (configuration not stated) in this test?
inactive

# outcome recorded in this test, key = `CCn1c(CSc2ncccn2)nnc1SCC(=O)N1CCc2ccccc21`
inactive

New cases:
Which outcome was entered for the compound `Cc1ccc(Cn2c(=O)n(Cc3ccccc3)c(=O)c3c(C)c(C)sc32)cc1` in this test?
inactive

Query: recorded result category for `O=c1[nH]c2ccc(N=Cc3ccccc3C(F)(F)F)cc2[nH]1` in this test
inactive

Identify the outcome logged in this assay for the compound shown: CCC(C)c1ccc(OCC(=O)Nc2cccc3ccc(C)nc23)cc1 (configuration not stated)
active

Which result was noted for this compound in the test: `COCCCNC(=O)c1ccc2c(c1)N(Cc1ccccc1)C(=O)c1ccccc1S2`
inactive

Which result was noted for this compound in the test: `COC(=O)c1cccc(NC(=O)c2nsc3ccccc23)c1`
active

// return assay outcome for `CCc1ccc(NC(=O)c2cnc3sc(N4CCCC4)nn3c2=O)cc1`
inactive

How was `O=C(NCc1cccc(F)c1)c1cccc(NC(=O)c2nsc3ccccc23)c1` classified in this test?
inactive

Called result for `COc1ccc(C2=NC(c3ccncc3)=Nc3ccc(Br)cc3N2)cc1`
inactive

Which result was noted for this compound in the test: `Cc1ccc(-n2c(=O)c3c(C)c(C)sc3n(Cc3ccc(F)cc3Cl)c2=O)cc1C`
inactive

Which outcome was entered for the compound `Cc1cccc(Cn2c(=O)n(CCc3ccccc3)c(=O)c3c(C)c(C)sc32)c1` in this test?
inactive

Short answer needed: outcome of this test for `CC(=O)Nc1ccc(S(=O)(=O)N2CCC(c3ccncc3)CC2)cc1` ?
active

Fill in: this test's call for `Cc1sc2c(c1C)c(=O)n(CCc1ccccc1)c(=O)n2Cc1ccc(F)cc1` is ___
inactive

Called result for `COc1ccc(CCNC(=O)c2cc(C)nc3c2c(C)nn3-c2ccccc2)cc1OC`
inactive

What was the test verdict on `CCc1cccc(NC(=O)CSc2ncc3c(n2)-c2ccc(Cl)cc2N(Cc2ccccc2)S3(=O)=O)c1` ?
inactive

Kindly provide the recorded test outcome for the following compound: CC(NC(=O)c1cccc(NC(=O)c2nsc3ccccc23)c1)c1ccccc1 (configuration not stated)
inactive

Could you kindly confirm the outcome this assay logged for `Cc1ccc2cccc(NC(=O)COc3ccccc3Cl)c2n1` ?
inactive

Outcome logged for `Cc1ccc(C)c(CSc2c(C(C)C)cnc3c2c(=O)n(C)c(=O)n3C)c1` in this assay:
inactive

Can you look up the reported call for `CCCCOc1ccc(CNC(=O)c2cnc3sc(N4CCC(C)CC4)nn3c2=O)cc1` for me?
inactive

Field: outcome | Entry: `CCCCOc1ccc(C2=NC(c3ccncc3)=Nc3ccc(Br)cc3N2)cc1`
active
